Recorded TGI, one value per entry.
Test system: EKVX NSCLC
Assay: NCI tumour cell line growth inhibition, 48 h

molecule	TGI
Cc1cc(O)c2c(c1)C(C1OC(CO)C(O)C(O)C1O)c1cc(O)cc(O)c1C2=O (stereo not given)	> 100 µM
O=c1sc(Nc2ccc3ccccc3c2Cl)nc2ccccc12	> 100 µM
Fc1cc(C2=Nn3c(CNc4ccc(Cl)cc4)nnc3S/C2=C\c2ccc(-c3ccc(Cl)cc3)o2)c(Cl)cc1Cl	67.8 µM
Clc1ccc(OCc2nnc3sc(SSc4nn5c(COc6ccc(Cl)cc6)nnc5s4)nn23)cc1	> 100 µM
O=C(Nc1ccccc1)n1cc(-c2ccccn2)c(N2CCOCC2)n1	> 100 µM
Cc1cc2nc3c(=O)[nH]c(=O)nc-3n(CC(O)C(O)C(O)CO)c2cc1N (stereo not given)	> 100 µM
CC(=O)Nc1c2sscc-2n(C)c1=O	3.68 µM
CCOC(CN(C)C(=O)Nc1ccc(Cl)c(Cl)c1)OCC	> 10 µM
COc1ccc(OC)c(N=Cc2cc(OC)c(OC)c(OC)c2)c1	> 100 µM

Q: Quick one: TGI for COC(=O)C(=NNc1ccccc1[N+](=O)[O-])C(=O)OC ?
A: > 100 µM
